Entries annotated with measured pIC50
biological target: NDM-1 (Klebsiella pneumoniae, UniProt C7C422); experiment: biochemical; assay type: biochemical; conditions: fluorescence assay, CCF2-FA substrate, 1 pM enzyme, 2 hours at 25° C.; read-out: NDM-1 IC50
Sequence (C7C422 whole entry, looked up, species assumed): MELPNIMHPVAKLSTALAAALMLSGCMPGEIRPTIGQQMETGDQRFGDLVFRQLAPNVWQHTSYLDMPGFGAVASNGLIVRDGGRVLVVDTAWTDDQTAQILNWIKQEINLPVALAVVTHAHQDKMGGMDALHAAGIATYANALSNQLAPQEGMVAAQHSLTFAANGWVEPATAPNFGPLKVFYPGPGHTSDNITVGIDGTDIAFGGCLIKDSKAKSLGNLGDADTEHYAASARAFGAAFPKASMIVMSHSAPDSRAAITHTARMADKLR
# pIC50 = -log10(concentration in molar units)

Known results for compounds:
INSERT INTO measurements (compound, property_name, observed_result) VALUES
  ('NC(=O)c1ccc(-c2ccc(S(=O)(=O)N[C@@H]3CCNC3)c(S(N)(=O)=O)c2-c2nnn[nH]2)cc1', 'pIC50', 9.90),
  ('Nc1nc2c(-c3ccc(S(=O)(=O)NCc4ccccn4)c(S(N)(=O)=O)c3-c3nnn[nH]3)cccc2s1.O=C(O)C(F)(F)F [Example 106, 2,2,2-trifluoroacetate]', 'pIC50', 10.14),
  ('NC[C@@H](N)CNS(=O)(=O)c1ccc(-c2cnc(N)s2)c(-c2nn[nH]n2)c1S(N)(=O)=O', 'pIC50', 9.24),
  ('NS(=O)(=O)c1c(S(=O)(=O)N[C@@H]2CCNC2)ccc(-c2cnc3cc[nH]c3c2)c1-c1nn[nH]n1', 'pIC50', 10.35);

Fill in: pIC50 of Nc1nc2c(-c3ccc(S(=O)(=O)NC4CCc5nccn5C4)c(S(N)(=O)=O)c3-c3nnn[nH]3)cccc2s1 (stereo not drawn) is ___
10.29

Also Nc1nc(-c2cccc(-c3ccc(S(=O)(=O)N[C@@H]4CCNC4)c(S(N)(=O)=O)c3-c3nn[nH]n3)c2)n[nH]1 , if possible.
10.54

###

test system: Pseudomonas aeruginosa MB9798 vs MB9799; settings: ratio MITC95 PA_9798/MITC95 PA_9799
PROPERTY NAME: Efflux ratio
Just the number.

Recorded results for 2 compounds are shown here.
INSERT INTO measurements (compound, observed_result) VALUES
  ('NC[C@H](N)CNS(=O)(=O)c1ccc(-c2cccnc2N)c(-c2nn[nH]n2)c1S(N)(=O)=O', 2.00),
  ('Nc1nc2c(-c3ccc(S(=O)(=O)NC4CNC[C@H]4N)c(S(N)(=O)=O)c3-c3nn[nH]n3)cccc2[nH]1 (stereo in doubt)', 0.83);

Now let's try a different one.
# query: Efflux ratio of entry NS(=O)(=O)c1c(S(=O)(=O)N[C@H]2C[C@H](N)C2)ccc(-c2cccc3[nH]cnc23)c1-c1nn[nH]n1
1.00

###

molecular target: VIM-1 (Pseudomonas aeruginosa (strain ATCC 15692 / DSM 22644 / CIP 104116 / JCM 14847 / LMG 12228 / 1C / PRS 101 / PAO1), UniProt A0A0F7KYQ8); assay: biochemical; details: read-out: VIM-1 IC50; fluorescence assay, CCF2-FA substrate, 30 pM enzyme, 2 hours at 25° C.
PROPERTY NAME: pIC50
Field pIC50 (float): negative decimal logarithm of the concentration in molar.

What value of measured pIC50 is listed for Nc1ccc(-c2ccc(S(=O)(=O)NC3CC(N)C3)c(S(N)(=O)=O)c2-c2nn[nH]n2)cn1 (stereo not shown) ?
9.94

###

target: IMP-1 (Serratia marcescens); assay: biochemical; assay type: biochemical; conditions: fluorescence assay, CCF2-FA substrate, 2 pM enzyme, 2 hours at 25° C.; read-out: IMP-1 IC50
Sequence (P52699 whole entry, looked up, species assumed): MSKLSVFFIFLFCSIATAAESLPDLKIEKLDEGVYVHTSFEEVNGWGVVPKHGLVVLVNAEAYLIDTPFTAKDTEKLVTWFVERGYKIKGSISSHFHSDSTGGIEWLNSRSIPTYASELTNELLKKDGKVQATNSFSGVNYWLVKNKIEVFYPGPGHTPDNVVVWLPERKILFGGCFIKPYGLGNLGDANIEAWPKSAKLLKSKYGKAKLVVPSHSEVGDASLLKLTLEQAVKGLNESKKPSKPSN
// values below are reported IC50
Enter your answer as a number in nM; do not include the unit.

Some solved entries appear below for comparison.
INSERT INTO measurements (compound, property_name, observed_result) VALUES
  ('Nc1nc2c(-c3ccc(S(=O)(=O)NC[C@H]4CCCN4)c(S(N)(=O)=O)c3-c3nn[nH]n3)cccc2[nH]1 [Example 261]', 'IC50', 0.648),
  ('C[N+]1(C)CC[C@H](NS(=O)(=O)c2ccc(-c3cccc4[nH]c(N)nc34)c(-c3nn[n-]n3)c2S(N)(=O)=O)C1 [Example 166]', 'IC50', 0.82),
  ('NC[C@H](N)CNS(=O)(=O)c1ccc(-c2cccc3ccc(N)nc23)c(-c2nn[nH]n2)c1S(N)(=O)=O [Example 371]', 'IC50', 0.289);

Look up IC50: Nc1ncccc1-c1ccc(S(=O)(=O)NC[C@@H]2CNCCN2)c(S(N)(=O)=O)c1-c1nn[nH]n1 [Example 313]
1.3

###

system: Pseudomonas aeruginosa MB9798 vs MB9799; conditions: fold difference between efflux+ (MB9798) and efflux− (MB9799) strains; imipenem at 2 μg/mL
PROPERTY NAME: Efflux ratio
Form field (numeric): enter value without unit.

These solved cases illustrate the format of a correct answer.
INSERT INTO assay_data (compound_string, study_system, property_name, observed_result) VALUES
  ('Nc1ccc(-c2ccc(S(=O)(=O)NC[C@H]3CCCN3)c(S(N)(=O)=O)c2-c2nn[nH]n2)cn1', 'Pseudomonas aeruginosa MB9798 vs MB9799', 'Efflux ratio', 2.00),
  ('NCCNCc1sc(N)nc1-c1cccc(-c2ccc(S(=O)(=O)N[C@@H]3CCNC3)c(S(N)(=O)=O)c2-c2nnn[nH]2)c1', 'Pseudomonas aeruginosa MB9798 vs MB9799', 'Efflux ratio', 2.00),
  ('NS(=O)(=O)c1c(S(=O)(=O)NC[C@H]2CNCCN2)ccc(-c2cccc3[nH]cnc23)c1-c1nn[nH]n1', 'Pseudomonas aeruginosa MB9798 vs MB9799', 'Efflux ratio', 1.00),
  ('NCCNc1cc(-c2ccc(S(=O)(=O)NCCN)c(S(N)(=O)=O)c2-c2nn[nH]n2)ccn1', 'Pseudomonas aeruginosa MB9798 vs MB9799', 'Efflux ratio', 2.00),
  ('NCCNc1cc(-c2ccc(S(=O)(=O)NCCO)c(S(N)(=O)=O)c2-c2nn[nH]n2)ccn1', 'Pseudomonas aeruginosa MB9798 vs MB9799', 'Efflux ratio', 31.99);

Which Efflux ratio is reported for this molecule? C[C@H](N)Cc1nc2c(-c3ccc(S(N)(=O)=O)c(S(N)(=O)=O)c3-c3nn[nH]n3)cccc2[nH]1
0.50

Entry C[C@@H](N)CNS(=O)(=O)c1ccc(-c2ccc3nccn3c2)c(-c2nn[nH]n2)c1S(N)(=O)=O please
4.00

###

target: NDM-1 (Klebsiella pneumoniae, UniProt C7C422); experiment: biochemical; assay type: biochemical; conditions: fluorescence assay, CCF2-FA substrate, 1 pM enzyme, 2 hours at 25° C.; read-out: NDM-1 IC50
Field: label. Allowed values: Met (IC50 < 0.08 nM) or Not met (IC50 >= 0.08 nM).

INSERT INTO assay_data (molecule, qualitative_label) VALUES
  ('Nc1nc2c(-c3ccc(S(=O)(=O)N[C@@H]4CN[C@H](CO)C4)c(S(N)(=O)=O)c3-c3nnn[nH]3)cccc2s1 [Example 80]', 'Met'),
  ('NC[C@@H](N)CNS(=O)(=O)c1ccc(-c2cccc3ccc(N)nc23)c(-c2nn[nH]n2)c1S(N)(=O)=O [Example 376]', 'Met'),
  ('NC[C@H](N)CNS(=O)(=O)c1ccc(-c2cnc(N)s2)c(-c2nn[nH]n2)c1S(N)(=O)=O [Example 372]', 'Not met'),
  ('NC[C@H](CO)NS(=O)(=O)c1ccc(-c2ccc(N)nc2)c(-c2nn[nH]n2)c1S(N)(=O)=O [Example 408]', 'Not met'),
  ('NCCNS(=O)(=O)c1ccc(-c2cccc3cn[nH]c23)c(-c2nn[nH]n2)c1S(N)(=O)=O [Example 9]', 'Not met'),
  ('Cn1c(N)nc2c(-c3ccc(S(=O)(=O)N4CCNCC4)c(S(N)(=O)=O)c3-c3nn[nH]n3)cccc21 [Example 158]', 'Not met'),
  ('Nc1nc2c(-c3ccc(S(=O)(=O)NCC4(O)CCNCC4)c(S(N)(=O)=O)c3-c3nnn[nH]3)cccc2s1 [Example 86]', 'Met'),
  ('Nc1ccc(-c2ccc(S(=O)(=O)N[C@H]3CCNC3)c(S(N)(=O)=O)c2-c2nn[nH]n2)cn1 [Example 195]', 'Not met');

Does Cn1c(N)nc2c(-c3ccc(S(N)(=O)=O)c(S(N)(=O)=O)c3-c3nn[nH]n3)cccc21 [Example 5] have IC50 strictly under 0.08 nM?
Not met

Nc1cc(-c2ccc(S(=O)(=O)N[C@@H]3CCNC3)c(S(N)(=O)=O)c2-c2nn[nH]n2)ccn1 [Example 288] , same question.
Not met

Now the molecule NCCOCCNS(=O)(=O)c1ccc(-c2cccc3sc(N)nc23)c(-c2nnn[nH]2)c1S(N)(=O)=O [Example 203]
Met

Okay, and NCC1CN(S(=O)(=O)c2ccc(-c3cccc4sc(N)nc34)c(-c3nnn[nH]3)c2S(N)(=O)=O)CCO1.O=C(O)C(F)(F)F (centres unmarked) [Example 104, 2,2,2-trifluoroacetate] ?
Not met

Would you kindly repeat that for N#Cc1cccc(-c2ccc(S(=O)(=O)N[C@@H]3CCNC3)c(S(N)(=O)=O)c2-c2nnn[nH]2)c1N [Example 132] ?
Not met
